Consider the following molecules; for each one, report its IC50.
Molecular target: Serine/threonine-protein kinase ULK1 (Homo sapiens)
Sequence (O75385 whole entry): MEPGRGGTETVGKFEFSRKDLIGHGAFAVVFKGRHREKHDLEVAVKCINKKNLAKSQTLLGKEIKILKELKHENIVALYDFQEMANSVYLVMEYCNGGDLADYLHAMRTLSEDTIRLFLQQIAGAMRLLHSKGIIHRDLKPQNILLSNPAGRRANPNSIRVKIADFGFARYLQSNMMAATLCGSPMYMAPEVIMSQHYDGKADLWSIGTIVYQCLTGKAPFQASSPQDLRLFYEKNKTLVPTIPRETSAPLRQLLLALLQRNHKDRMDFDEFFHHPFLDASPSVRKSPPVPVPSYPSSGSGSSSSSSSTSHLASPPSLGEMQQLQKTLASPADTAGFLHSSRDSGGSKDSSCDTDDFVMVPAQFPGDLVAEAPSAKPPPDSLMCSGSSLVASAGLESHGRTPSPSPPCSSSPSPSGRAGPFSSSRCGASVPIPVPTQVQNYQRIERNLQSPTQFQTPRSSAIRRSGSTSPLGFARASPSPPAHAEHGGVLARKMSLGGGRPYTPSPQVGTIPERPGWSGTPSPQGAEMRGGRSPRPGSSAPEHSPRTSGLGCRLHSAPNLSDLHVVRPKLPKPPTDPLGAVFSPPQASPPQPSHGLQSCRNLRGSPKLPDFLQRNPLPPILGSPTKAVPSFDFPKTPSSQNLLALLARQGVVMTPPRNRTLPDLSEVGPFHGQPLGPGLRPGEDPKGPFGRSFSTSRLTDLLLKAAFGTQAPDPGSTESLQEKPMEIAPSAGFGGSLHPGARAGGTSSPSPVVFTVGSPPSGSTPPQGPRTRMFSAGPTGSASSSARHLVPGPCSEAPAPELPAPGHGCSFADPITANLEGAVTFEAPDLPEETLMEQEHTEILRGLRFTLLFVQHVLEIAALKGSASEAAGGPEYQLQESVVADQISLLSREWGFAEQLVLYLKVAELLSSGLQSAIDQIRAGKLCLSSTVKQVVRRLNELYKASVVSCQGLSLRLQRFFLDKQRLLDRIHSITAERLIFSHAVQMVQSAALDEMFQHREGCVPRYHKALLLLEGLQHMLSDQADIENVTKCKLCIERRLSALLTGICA
Experiment: ULK1 inhibition assay: Gamma-32P assays to measure ULK1 kinase activity were performed as previously described. Briefly, Flag ULK1 was transfected into HEK293T cells and 20 hours later treated as indicated. The immmunoprecipitate was washed in IP buffer 3 times, and washed in kinase buffer (25 mM MOPS, pH 7.5, 1 mM EGTA, 0.1 mM Na3VO4, 15 mM MgCl2,). Hot and cold ATP were added at a 100 μM final concentration. As substrates, GST or the recombinant protein GST-Atg101 purified from E. coli were used at 1 μg for each reaction. Reactions were boiled, run out on SDS page gel. The gel was dried, and imaged using PhosphoImager software. For cold assays to asses ULK1, Flag ULK1 which was transiently overexpressed and immunoprecipited from HEK293T cells. Reactions were then run out on SDS page gel, transferred to PVDF membrane and blotted for total levelsFluorescence MicroscopyVps34flox/flox MEFs were reconstituted with Flag-VPS34 and either p40FX or GFP-DFCP1. 48 hours post infection with adenovirus expressing Cre recombinase (MOI of 100), cells were plated on glass coverslips at a density of 3×10^5 cells per well in 6-well tissue culture plates. 18 h later, cells were fixed in 4% PFA in PBS for 10 minutes and permeabilized in 0.2% Triton in PBS for 10 minutes. The following primary antibodies were used: mouse anti-Myc epitope and LC3B XP antibody (2276 and 3868 respectively, Cell Signaling Technologies). Secondary antibodies were anti-rabbit Alexa488 and anti-mouse Alexa594 (Molecular Probes, 1:1000. Cells were then fixed and counter stained with DAPI. Coverslips were mounted in FluoromountG (SouthernBiothech). Images were acquired on a Zeiss Axioplan2 epifluorescence microscope coupled to the Openlab software. Confocal images of mitotracker were taken on Zeiss LSM 710 laser scanning confocal microscope. 10 random fields per condition were acquired using the 100× objective and representative images shown. Glass coverslips were mounted directly on plate with FluoromountG and images taken on Zeiss Axioplan2 epifluorescence microscope.

SMILES CODE: CNC(=O)c1ccccc1COc1nc(Nc2cc(OC)c(OC)c(OC)c2)ncc1Br
IC50: > 2000 nM

SMILES CODE: COc1cc(Nc2ncc(Br)c(Oc3ccccc3C3=NC(C)(C)CO3)n2)cc(OC)c1OC
IC50: > 2000 nM

SMILES CODE: COc1cc(Nc2ncc(Br)c(Oc3cccc4c3N(C(C)=O)CCC4)n2)cc(OC)c1OC
IC50: > 2000 nM

SMILES CODE: COc1cc(Nc2ncc(Br)c(Oc3cccc4cc[nH]c34)n2)cc(OC)c1OC
IC50: > 2000 nM

SMILES CODE: CC(=O)Nc1ccccc1Oc1nc(Nc2ccc3c(c2)OCO3)ncc1Br
IC50: > 2000 nM

Please state, for each entry, its recorded IC50.
1. NC(=O)c1cccc(Nc2ncc(C(F)(F)F)c(Nc3ccc4c(c3)OCO4)n2)c1
2. COc1cc(Nc2ncc(Br)c(Oc3ccccc3O)n2)cc(OC)c1OC
3. COc1cc(Nc2ncc(Br)c(Oc3cccc(O)c3[N+](=O)[O-])n2)cc(OC)c1OC
4. COc1cc(Nc2ncc(C(F)(F)F)c(Oc3ccccc3N)n2)cc(OC)c1OC
5. FC(F)(F)c1cnc(Nc2ccc3c(c2)CCC3)nc1Nc1ccc2c(c1)OCO2

Resp:
["< 200 nM", "> 2000 nM", "> 2000 nM", "< 200 nM", "< 200 nM"]
